Tested on: TDF;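 further: TDF is a line of transformed human dermal fibroblasts of mesenchymal origin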
Assay: H1.0 immunofluorescence intensity relative to DMSO (% of DMSO); higher = stronger H1.0 induction, active = 120 or more
Settings: concentration: 10 µM; 24 h
If the reported H1.0 immunofluorescence intensity equals or exceeds 100, assign true (1). If not, assign false (0).

## Task // inclusive: H1.0 immunofluorescence intensity at least 100? input: Nc1ccc(C(=O)Nc2cccc(-c3nc(N4CCOCC4)c4oc5ncccc5c4n3)c2)cn1
## Result true (1)

## Task // inclusive: H1.0 immunofluorescence intensity at least 100? input: CC1(C)C(C(=O)O)N2C(=O)CC2S1(=O)=O (stereo not given)
## Result false (0)

## Task // inclusive: H1.0 immunofluorescence intensity at least 100? input: CC(C=CC1=C(C)CCCC1(C)C)=CC=CC(C)=CC(=O)O [13-cis Retinoic acid]
## Result false (0)

## Task // inclusive: H1.0 immunofluorescence intensity at least 100? input: CC(O)CCCC(O)C=CC1C(O)CC(O)C1CC=CCCCC(=O)O [19(R)-Hydroxy-prostaglandin F2a]
## Result false (0)

## Task // inclusive: H1.0 immunofluorescence intensity at least 100? input: CCCCC(=O)O[C@]1(C(=O)CO)[C@@H](C)C[C@H]2[C@@H]3CCC4=CC(=O)C=C[C@]4(C)[C@@]3(F)[C@@H](O)C[C@@]21C
## Result false (0)

## Task // inclusive: H1.0 immunofluorescence intensity at least 100? input: O=C(O)Cc1ccc(O)c(O)c1 [3,4-Dihydroxyphenylacetic acid]
## Result false (0)

## Task // inclusive: H1.0 immunofluorescence intensity at least 100? input: Cl.c1ccc(C2CCCC2NC2=NCCCCCCCCCCC2)cc1 (stereo not given) [MDL 12,330A hydrochloride]
## Result false (0)

## Task // inclusive: H1.0 immunofluorescence intensity at least 100? input: Cl.O=c1cc(N2CCOCC2)oc2c(-c3ccccc3)cccc12 [LY-294,002 hydrochloride]
## Result false (0)

## Task // inclusive: H1.0 immunofluorescence intensity at least 100? input: CN(CCOc1ccc(CC(Nc2ccccc2C(=O)c2ccccc2)C(=O)O)cc1)c1ccccn1 (stereo not given)
## Result false (0)

## Task // inclusive: H1.0 immunofluorescence intensity at least 100? input: CNC1C(O)C(NC)C2OC3(O)C(=O)CC(C)OC3OC2C1O.Cl.Cl (stereo not given) [Spectinomycin.2HCl]
## Result false (0)

## Task // inclusive: H1.0 immunofluorescence intensity at least 100? input: [Cl-].[Li+] [Lithium Chloride]
## Result false (0)

## Task // inclusive: H1.0 immunofluorescence intensity at least 100? input: O=C(O)CO.[NH2-].[NH2-].[Pt+2]
## Result false (0)

## Task // inclusive: H1.0 immunofluorescence intensity at least 100? input: NC(Cc1ccc(O)c(O)c1)C(=O)O (stereo not given)
## Result false (0)

## Task // inclusive: H1.0 immunofluorescence intensity at least 100? input: CCCCNc1ncc(C(=O)NCc2ccc(-n3ccnc3)cc2)c(NC2CCC(O)CC2)n1 (stereo not given)
## Result true (1)

## Task // inclusive: H1.0 immunofluorescence intensity at least 100? input: O=C(COc1ccc(Cl)cc1)NC1CCC(NC(=O)COc2ccc(Cl)cc2)CC1 (stereo not given)
## Result false (0)

## Task // inclusive: H1.0 immunofluorescence intensity at least 100? input: CN1CCN(C2Cc3ccccc3Sc3ccc(Cl)cc32)CC1.O=C(O)C=CC(=O)O (stereo not given) [Clorotepine maleate]
## Result true (1)

## Task // inclusive: H1.0 immunofluorescence intensity at least 100? input: Cl.NC(N)=NC(N)=Nc1cccc(Cl)c1 [1-(m-Chlorophenyl)-biguanide hydrochloride]
## Result false (0)

## Task // inclusive: H1.0 immunofluorescence intensity at least 100? input: CCCN(CCc1ccccc1)C1CCc2c(O)cccc2C1 (stereo not given) [2-(N-Phenethyl-N-propyl)amino-5-hydroxytetralin]
## Result false (0)

## Task // inclusive: H1.0 immunofluorescence intensity at least 100? input: Cl.O=C1CC2(CCCC2)CC(=O)N1CCCCN1CCN(c2ncccn2)CC1 [Buspirone hydrochloride]
## Result false (0)

## Task // inclusive: H1.0 immunofluorescence intensity at least 100? input: Cl.NC(N)=NCCNS(=O)(=O)c1cccc2cnccc12 [HA-1004 hydrochloride]
## Result false (0)

## Task // inclusive: H1.0 immunofluorescence intensity at least 100? input: CCN(Cc1ccccc1)C(=O)Cn1c(=O)n(C)c2cnc(-c3ccccc3)nc21
## Result true (1)

## Task // inclusive: H1.0 immunofluorescence intensity at least 100? input: N#CCCc1ccc2c(c1)-c1[nH]c3ccc([N+](=O)[O-])cc3c1CC(=O)N2
## Result true (1)

## Task // inclusive: H1.0 immunofluorescence intensity at least 100? input: O=C(O)CP(=O)(O)O
## Result false (0)

## Task // inclusive: H1.0 immunofluorescence intensity at least 100? input: CNCCNS(=O)(=O)c1cccc2cnccc12.Cl.Cl [H-8 dihydrochloride]
## Result false (0)

## Task // inclusive: H1.0 immunofluorescence intensity at least 100? input: O=C(C1CCCCC1)N1CC(=O)N2CCc3ccccc3C2C1 (stereo not given)
## Result false (0)
